Tested on: Leishmania donovani
Test: Leishmania intramacrophage assay
Assay type: functional, organism-based
Parameters: scale not given: in the data most compounds retested in dose-response had high values
Details: 30 µM; 30.03 µM
Out of some 69,000 compounds screened, about 1,000 (1.4%) showed an effect of 50% or more. Shown is part of a subset that was picked to be rich in strong results.
measuredParameter: Percent Effect (%)

molecule: Cn1cc(C(=O)N2CC[C@@H]3[C@@H]2CCN3Cc2cccc(F)c2)cn1.O=C(O)C(F)(F)F
reportedValue: 2.666
--
molecule: Cc1ccc([C@]2(O)CC[C@H]3CN(Cc4cc(C)c(O)c(C)c4)C[C@H]32)nc1.O=C(O)CC(O)(CC(=O)O)C(=O)O
reportedValue: 50.06
--
molecule: CC(O)CN1CCC(CNCc2cccc(OC(C)C)c2)CC1 (configuration not stated)
reportedValue: 57.47
--
molecule: Cc1noc([C@H]2C[C@@H]3CCN(C(=O)C4CCOCC4)C[C@H]3O2)n1
reportedValue: -8.466
--
molecule: CC(O)CN1CCC(CNCc2ccccc2Br)CC1 (configuration not stated)
reportedValue: 58.06
--
molecule: CCSc1cc(C(=O)NCc2ccccc2O)ccn1
reportedValue: 52.62
--
molecule: CCCc1n[nH]c(C2CN(C(=O)c3ccco3)CCO2)n1 (configuration not stated)
reportedValue: 22.5
--
molecule: Cn1ccnc1CN1CCC2(COCCN(Cc3ccsc3)C2)C1 (configuration not stated)
reportedValue: 46.66
--
molecule: COc1ccc(CNCC2CCN(CC(C)O)CC2)c2ccccc12 (configuration not stated)
reportedValue: 95.94
--
molecule: O=C(O)C(F)(F)F.OCCN1CCOC2(CCCN(c3cccc(F)c3)C2)C1 (configuration not stated)
reportedValue: 37.14
--
molecule: CN(C)c1ncc(CN2CCOC(C(=O)Nc3ccccc3)C2)cn1 (configuration not stated)
reportedValue: -7.564
--
molecule: Cc1ccc(C(=O)N2CCC3(CC2)COC(COc2ccccn2)C3)o1.O=C(O)C(F)(F)F (configuration not stated)
reportedValue: -68.01
--
molecule: CC(O)CN1CCC(CNCc2ccc(S(C)(=O)=O)cc2)CC1 (configuration not stated)
reportedValue: 29.6
--
molecule: Cc1cc(NC(=O)NCC(C)N2CCc3ccccc32)no1 (configuration not stated)
reportedValue: 27.07
--
molecule: FC(F)(F)c1nc(NC2CCCC2)c2ccccc2n1
reportedValue: 52.6
--
molecule: CC(O)CN1CCC(CNCc2ccccc2OC(F)(F)F)CC1 (configuration not stated)
reportedValue: 31.23
--
molecule: Cc1ccc([C@]2(O)CC[C@H]3CN(Cc4cccc(Cl)c4Cl)C[C@H]32)nc1.O=C(O)CC(O)(CC(=O)O)C(=O)O
reportedValue: 12.17
--
molecule: COc1cccc(CCC(=O)N2CCCC(n3cc(C)cn3)C2)c1 (configuration not stated)
reportedValue: 9.343
--
molecule: Cc1noc(C)c1CNCC1CCN(CC(O)c2ccccc2)CC1 (configuration not stated)
reportedValue: 48.93
--
molecule: COc1ccc2c(ccn2CCC(=O)O)c1
reportedValue: 9.834
--
molecule: COc1ccc(CN2CC[C@@H](O)[C@@H]2Cc2ccccc2)cc1.O=C(O)C(F)(F)F
reportedValue: -18.25
--
molecule: COc1cc(N2CC[C@H](O)[C@@H]2Cc2cnn(C)c2)ncn1
reportedValue: 12.89

###

// values below are reported Percent Effect
System: Leishmania donovani
Test: Leishmania intramacrophage assay
Type: functional, organism-based
Set-up: scale not given: in the data most compounds retested in dose-response had high values
Conditions: 30.3 µM; […]
The campaign covered roughly 69,000 compounds. About 1,000 (1.4%) showed an effect of 50% or more. The sample as a whole holds a higher share of strong results than the screen did.

compound: Nc1nc2c(c(NCC(c3cccnc3)N3CCOCC3)n1)CCNC2 (configuration not stated)
Percent Effect / %: 45.62

compound: Cl.NCC1CCC(c2c(C(=O)NCCO)sc3ccccc23)CC1 (configuration not stated)
Percent Effect / %: 15.08

compound: CC(C)S(=O)(=O)N1CCC(c2[nH]ncc2S(C)(=O)=O)C1 (configuration not stated)
Percent Effect / %: -8.157

compound: COc1cccc(-c2cccc(N3CCC(N[C@@H]4CCOC4)CC3)c2)c1
Percent Effect / %: 96

compound: O=C(NCC(O)(c1ccco1)C1CC1)c1ccccc1F (configuration not stated)
Percent Effect / %: -8.312

compound: CNC(=O)C1CN(Cc2ccc(C#N)cc2F)c2ccccc2O1 (configuration not stated)
Percent Effect / %: 34.5

compound: O=C(CCc1ccsc1)NC1CCN(c2cccc(F)c2)CC1
Percent Effect / %: -29.46

compound: Cc1nccn1Cc1nnc(C2CCN(c3ccncc3F)CC2)n1C
Percent Effect / %: 4.988

compound: CS(=O)(=O)c1ccccc1-n1cc(NC(=O)CC2C=CCC2)cn1 (configuration not stated)
Percent Effect / %: 4.466

compound: Fc1cccc(-c2cccc(N3CCC(NC4CCCOC4)CC3)c2)c1 (configuration not stated)
Percent Effect / %: 98.85

compound: Cc1nc(-c2cccc(N3CCC(N[C@@H]4CCOC4)CC3)c2)cs1
Percent Effect / %: -5.486

compound: Cn1ncc2c(NC3CCCN(C(=O)C4CC4)C3)nc(C(C)(C)C)nc21 (configuration not stated)
Percent Effect / %: -38.63

compound: O=C1CO[C@H]2CN(Cc3cccc4[nH]ccc34)C[C@@H]2N1C1CCOCC1
Percent Effect / %: 12.12

compound: Cc1cc(N2CCC(c3nccn3Cc3cscn3)CC2)ccn1
Percent Effect / %: -14.56

compound: Cn1ncc2c(N[C@H]3CCCC[C@@H]3O)nc(C(C)(C)C)nc21
Percent Effect / %: 44.26

compound: Cc1ccc(CN2CC[C@@H]3OCCN(Cc4ccncc4)[C@H]3CC2)s1.O=C(O)C(F)(F)F.O=C(O)C(F)(F)F.O=C(O)C(F)(F)F
Percent Effect / %: -14.43

compound: COc1cccc(C(=O)NCC2CCN(C(=O)c3ccoc3)CC2)c1
Percent Effect / %: 42

compound: Cn1ncc2c(N[C@H]3CC[C@@H](N)CC3)nc(C(C)(C)C)nc21
Percent Effect / %: 100.6

compound: COc1cccc(N2CCC(N3CCOC(C(F)(F)F)C3)CC2)c1 (configuration not stated)
Percent Effect / %: 13.73

compound: CCOc1ccccc1CCN1Cc2ncccc2C1=O
Percent Effect / %: -1.003

compound: Cc1cc(C(=O)NC(COCC(C)C)c2ccco2)no1 (configuration not stated)
Percent Effect / %: 10.39

compound: COc1ccc(-c2cn(CCSc3ncn[nH]3)nn2)cn1
Percent Effect / %: 35.9

###

System: Leishmania donovani
Assay: Leishmania intramacrophage assay
Type: functional, organism-based
Set-up: scale not given: in the data most compounds retested in dose-response had high values
Settings: 30.3 µM; […]
The campaign covered roughly 69,000 compounds. About 1,000 (1.4%) showed an effect of 50% or more. This is one part of a sample in which strong results are shown more often than they occur.

compound: CCCC(=O)N1CCOC2(COCCN(CC(=O)NC)C2)C1.O=C(O)C(F)(F)F (centres undefined)
valueUnits: %
Percent Effect: -9.456
//
compound: Cc1csc(CN2CC(CO)Oc3ccccc32)n1 (centres undefined)
valueUnits: %
Percent Effect: -4.409
//
compound: CCc1nc(N)sc1C(=O)N1CCCC(COc2cccc(C)c2)C1 (centres undefined)
valueUnits: %
Percent Effect: -12.25
//
compound: CCN1CC(CN(C)c2cc(C)nc(N)n2)Oc2ccccc21 (centres undefined)
valueUnits: %
Percent Effect: 84.12
//
compound: CNC(=O)CN1CCOCC2(C1)CN(C(=O)C(C)C)CCO2.O=C(O)C(F)(F)F (centres undefined)
valueUnits: %
Percent Effect: -36.06
//
compound: COc1ccccc1OCCCN(C)c1cc(C)nc(N)n1
valueUnits: %
Percent Effect: 16.27
//
compound: CNC(=O)CN1CCOCC2(C1)CN(C(=O)CC(C)C)CCO2.O=C(O)C(F)(F)F (centres undefined)
valueUnits: %
Percent Effect: 52.6
//
compound: Cc1cc(NCCS(C)(=O)=O)nc2ccccc12
valueUnits: %
Percent Effect: 25.68
//
compound: CC(=O)Nc1ccc(CN2CCCC(c3cc4ncccc4[nH]3)C2)cc1 (centres undefined)
valueUnits: %
Percent Effect: 40.95
//
compound: Cc1cc(N(C)CCCn2cccn2)nc(N)n1
valueUnits: %
Percent Effect: 27.03
//
compound: Cc1ccccc1-n1cc(-c2ccnc(N3CCCC(CN)C3)n2)cn1 (centres undefined)
valueUnits: %
Percent Effect: 67.45
//
compound: CN(C)Cc1ccc(C(N)=O)cc1NC(=O)c1cccc(C#N)c1
valueUnits: %
Percent Effect: 0.5381
//
compound: Cc1cc(NCCCNS(C)(=O)=O)nc2ccccc12
valueUnits: %
Percent Effect: -8.515
//
compound: CN(CC1COc2ccccc2O1)C(=O)C1=NN(C)C(=O)CC1 (centres undefined)
valueUnits: %
Percent Effect: 18.48
//
compound: COCC(=O)N1CCN(Cn2nc(C)c(Br)c2C)CC1
valueUnits: %
Percent Effect: 52.22
//
compound: CCOCc1ccc(NC(=O)N2CCOC3(CCC3)C2)cc1
valueUnits: %
Percent Effect: -4.354
//
compound: Cc1cc(N(C)CC2COc3ccccc3O2)nc(N)n1 (centres undefined)
valueUnits: %
Percent Effect: 51.06
//
compound: CCOc1ccc(CN2CCCC(c3cc4ncccc4[nH]3)C2)cc1 (centres undefined)
valueUnits: %
Percent Effect: 54.07
//
compound: Cc1cc(C(=O)N2CCC3(CCC(=O)N(CC(N)=O)C3)CC2)ccc1O
valueUnits: %
Percent Effect: 11.98
//
compound: Cc1ccccc1-n1cc(-c2ccnc(N3CCCC(O)C3)n2)cn1 (centres undefined)
valueUnits: %
Percent Effect: 16.96
//
compound: Cc1ccccc1CCC1CCCN(C(=O)Cc2cc(=O)[nH]c(N)n2)C1 (centres undefined)
valueUnits: %
Percent Effect: -48.51
//
compound: Fc1ccc(CN2CCCC(c3cc4ncccc4[nH]3)C2)cc1 (centres undefined)
valueUnits: %
Percent Effect: -0.4017
//
compound: CCC(=O)N1CCCN(Cn2nc(C)c(Br)c2C)CC1
valueUnits: %
Percent Effect: -2.566
//
compound: COC(=O)N1CCCN(Cn2nc(C)c(Br)c2C)CC1
valueUnits: %
Percent Effect: -25.9
